biological target: hK1 (human tissue kallikrein 1), recombinant (human, UniProt P06870 25-262); assay: cell-based or functional assay
measure name: IC50 (nM), inhibition of hK1 hydrolysis of Pro-Phe-Arg-AMC
Express your answer in nM, writing the number without its unit.

Below, 3 binders whose answers are already recorded.
binder	numeric readout
M0102-E09 (Fab, V domains shown) VH: EVQLLESGGGLVQPGGSLRLSCAASGFTFSLYLMEWVRQAPGKGLEWVSSIGSSGGATWYADSVKGRFTISRDNSKNTLYLQMNSLRAEDTAMYYCATDTSRVAGTRLRNYYYYYGMDVWGQGTTVTVSS VL: DIQMTQSPDSLSLSPGERATLSCRASQSISSSYLAWYQQTPGQAPRLLIYHASSRATGVPARFSGSGSGTDFTLTISSLEPEDFAVYYCQQRNNWPPSFTFGGGTKVETKR	0.89
M0139-C02 (Fab, V domains shown) VH: EVQLLESGGGLVQPGGSLRLSCAASGFTFSYYKMHWVRQAPGKGLEWVSVIYPSGGKTTYADSVKGRFTISRDNSKNTLYLQMNSLRAEDTAVYYCTREHYQASYSSSAWFRMVPAGAFDIWGQGTMVTVSS VL: DIQMTQSPSSLSASVGDRVTITCRASQGIRRAWYQQKPGKPPKLLINDASSLESGVPSRFSGSGSGTDFTLTISSLQPEDFATYYCQQSYSTPPWTFGQGTKVEIKR	1
M0098-G05 (Fab, V domains shown) VH: EVQLLESGGGLVQPGGSLRLSCAASGFTFSKYKMGWVRQAPGKGLEWVSYIRPSGGMTFYADSVKGRFTISRDNSKNTLYLQMNSLRAEDTAVYYCTREHYQASYSSSAWFRMVPAGAFDIWGQGTMVTVSS VL: DIQMTQSPSSLSASVGDRVTITCRASQTISRYLNWYQQKPGTAPKLLIYAASSLQSGVPSRFSGDGSGTDFTLTISSLQPEDFGIYFCQQSYSAPRTFGQGTKVEIKR	4

Consider now this further binder.
Which IC50 (nM), inhibition of hK1 hydrolysis of Pro-Phe-Arg-AMC value is on record for M0102-H11 (Fab, V domains shown) VH: EVQLLESGGGLVQPGGSLRLSCAASGFTFSKYPMTWVRQAPGKGLEWVSSISSSGGKTQYADSVKGRFTISRDNSKNTLYLQMNSLRAEDTAVYYCTRGGSSTLYFMDVWGQGTTVTVSS VL: DIQMTQSPATLSLSPGERATLSCRASQSVSSYLAWYQQKPGQAPRLLIYGASSRATGIPDRFSGSGSGTDFTLTISSLEPEDFAVYYCQQRGGWPLTFGGGTKVEIRR ?
4.5
